- system_name: hGLP-1R (Homo sapiens, UniProt P43220)
- Sequence (P43220 24-463): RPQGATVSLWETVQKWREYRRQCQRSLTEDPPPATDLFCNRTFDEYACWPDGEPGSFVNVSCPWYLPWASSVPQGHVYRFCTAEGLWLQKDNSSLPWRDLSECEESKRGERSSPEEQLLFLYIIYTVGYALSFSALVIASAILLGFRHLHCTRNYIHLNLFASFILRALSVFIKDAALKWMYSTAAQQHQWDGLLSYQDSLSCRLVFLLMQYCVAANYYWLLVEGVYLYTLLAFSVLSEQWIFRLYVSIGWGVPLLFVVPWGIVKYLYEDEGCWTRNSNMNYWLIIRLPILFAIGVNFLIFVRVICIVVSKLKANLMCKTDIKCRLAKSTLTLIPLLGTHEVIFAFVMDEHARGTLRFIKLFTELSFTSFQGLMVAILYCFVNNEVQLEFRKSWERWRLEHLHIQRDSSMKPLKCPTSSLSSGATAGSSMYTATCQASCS
- measurement_protocol: cell-based or functional assay
What log10 Relative cAMP EC50, nM (0.1% casein) was measured for each of the following?
Recall that a logarithmic scale is used here: each number is log10 of Relative cAMP EC50, nM (0.1% casein) in nM.

QUERY: Return log10 Relative cAMP EC50, nM (0.1% casein) (reported value) for this binder: YXQGTFTSDFSXXLDKKAQXAFIEYLLEGGHSSGAPPPGGS (Aib, Orn, αMeL; acylated Lys; C-terminal amide; synthetic construct; SITE 2: note = 2-Aminoisobutyric Acid; SITE 12: note = L-ornithine; SITE 13: note = alpha-methyl-leucine; SITE 17: note = Lysine is chemically modified through conjugation of the epsilon-amino group of the Lysine side chain with (2-[2-(2-Amino-ethoxy)-ethoxy]-acetyl)-(gamma-Glu)) [Example 162]
RESULT: 0.67

QUERY: Return log10 Relative cAMP EC50, nM (0.1% casein) (reported value) for this binder: YXQGTFTSDFSXXLDKKAQXAFIEWLLEGGHSSGAPPPSGE (acylated Lys, C-terminal amide, non-natural residues; synthetic construct; SITE 2: note = 2-Aminoisobutyric Acid; SITE 12: note = L-ornithine; SITE 13: note = alpha-methyl-leucine; SITE 17: note = Lysine is chemically modified through conjugation of the epsilon-amino group of the Lysine side chain with (2-[2-(2-Amino-ethoxy)-ethoxy]-acetyl)2-(gamma-Glu)) [Example 169]
RESULT: 0.79

QUERY: Return log10 Relative cAMP EC50, nM (0.1% casein) (reported value) for this binder: YXQGTXTSDXXIXLDXKAQXXFIEXLIEGGPSSGEPPPE (synthetic construct; SITE 2: note = 2-Aminoisobutyric Acid; SITE 6: note = alpha-methyl-2-fluoro-L-phenylalanine; SITE 10: note = 3-(4-Pyridyl)-L-alanine; SITE 11: note = alpha-methyl-L-serine; SITE 13: note = alpha-methyl-leucine; SITE 16: note = L-ornithine; SITE 17: note = Lysine is chemically mo) [Example 453]
RESULT: -0.43

QUERY: Return log10 Relative cAMP EC50, nM (0.1% casein) (reported value) for this binder: YXQGTFTSDFSXXLDKKAQXAFIEYLLEXGPSSGAPPPEGS (Aib, Orn, αMeL; acylated lysine; C-terminal amide; synthetic construct; SITE 2: note = 2-Aminoisobutyric Acid; SITE 12: note = L-ornithine; SITE 13: note = alpha-methyl-leucine; SITE 17: note = Lysine is chemically modified through conjugation of the epsilon-amino group of the Lysine side chain with (2-[2-(2-Amino-ethoxy)-ethoxy]-acetyl)2-(gamma-Glu)) [Example 194]
RESULT: 0.67

QUERY: Return log10 Relative cAMP EC50, nM (0.1% casein) (reported value) for this binder: YXQGTFTSDFSXXLDKKAQXAFIEWLLEGGTSSGAPPPSGT (non-natural residues, AEEA-γGlu-C18 diacid acylation, C-terminal amide; synthetic construct; SITE 2: note = 2-Aminoisobutyric Acid; SITE 12: note = L-ornithine; SITE 13: note = alpha-methyl-leucine; SITE 17: note = Lysine is chemically modified through conjugation of the epsilon-amino group of the Lysine side chain with (2-[2-(2-Amino-ethoxy)-ethoxy]-acetyl)-(gamma-Glu)) [Example 177]
RESULT: 0.47

QUERY: Return log10 Relative cAMP EC50, nM (0.1% casein) (reported value) for this binder: YXQGTFTSDFSXXLDKKAQXAFIEWLLEGGHSSGAPPPSGS (Lys acylated with AEEA-γGlu-C18 diacid; non-natural residues; C-amide; synthetic construct; SITE 2: note = 2-Aminoisobutyric Acid; SITE 12: note = L-ornithine; SITE 13: note = alpha-methyl-leucine; SITE 17: note = Lysine is chemically modified through conjugation of the epsilon-amino group of the Lysine side chain with (2-[2-(2-Amino-ethoxy)-ethoxy]-acetyl)-(gamma-Glu)) [Example 170]
RESULT: 0.61

QUERY: Return log10 Relative cAMP EC50, nM (0.1% casein) (reported value) for this binder: YXQGTXTSDYXILLDKKAQXAFIEYLEEGGPSSGAPPPE (synthetic construct; SITE 2: note = 2-Aminoisobutyric Acid; SITE 6: note = alpha-methyl-2-fluoro-L-phenylalanine; SITE 11: note = alpha-methyl-L-serine; SITE 17: note = Lysine is chemically modified through conjugation of the epsilon-amino group of the Lysine side chain with (2-[2-(2-Amino-ethoxy)-e)) [Example 468]
RESULT: -0.33

QUERY: Return log10 Relative cAMP EC50, nM (0.1% casein) (reported value) for this binder: YXQGTXTSDXSIXLDKKAQXAFIEYLEEGGPSSGEPPPE (synthetic construct; SITE 2: note = 2-Aminoisobutyric Acid; SITE 6: note = alpha-methyl-2-fluoro-L-phenylalanine; SITE 10: note = 3-(4-Pyridyl)-L-alanine; SITE 13: note = alpha-methyl-leucine; SITE 17: note = Lysine is chemically modified through conjugation of the epsilon-amino group of the Lysine) [Example 487]
RESULT: -0.19

QUERY: Return log10 Relative cAMP EC50, nM (0.1% casein) (reported value) for this binder: YXQGTXTSDXXIXLDXKAQXXFIEYLIEGGPSSGEPPPEEG (synthetic construct; SITE 2: note = 2-Aminoisobutyric Acid; SITE 6: note = alpha-methyl-2-fluoro-L-phenylalanine; SITE 10: note = 3-(4-Pyridyl)-L-alanine; SITE 11: note = alpha-methyl-L-serine; SITE 13: note = alpha-methyl-leucine; SITE 16: note = L-ornithine; SITE 17: note = Lysine is chemically mo) [Example 476]
RESULT: -0.79

QUERY: Return log10 Relative cAMP EC50, nM (0.1% casein) (reported value) for this binder: YXQGTFTSDFSXXLDKKAQXAFIEWLLEGGTSSGAPPPSGE (Aib, Orn, αMeL; acylated Lys C18 diacid; C-term amide; synthetic construct; SITE 2: note = 2-Aminoisobutyric Acid; SITE 12: note = L-ornithine; SITE 13: note = alpha-methyl-leucine; SITE 17: note = Lysine is chemically modified through conjugation of the epsilon-amino group of the Lysine side chain with (2-[2-(2-Amino-ethoxy)-ethoxy]-acetyl)-(gamma-Glu)) [Example 175]
RESULT: 0.60

QUERY: Return log10 Relative cAMP EC50, nM (0.1% casein) (reported value) for this binder: YXQGTXTSDXSILLDXIAQXAFIKYLEEGGPSSGAPPPS (synthetic construct; SITE 2: note = 2-Aminoisobutyric Acid; SITE 6: note = alpha-methyl-2-fluoro-L-phenylalanine; SITE 10: note = 3-(4-Pyridyl)-L-alanine; SITE 16: note = L-ornithine; SITE 20: note = 2-Aminoisobutyric Acid; SITE 24: note = Lysine is chemically modified through conjugation of the eps) [Example 454]
RESULT: -0.09

QUERY: Return log10 Relative cAMP EC50, nM (0.1% casein) (reported value) for this binder: YXQGTFTSDFSXXLDKKAQXAFIEYLLEGGESSGAPPPGGS (non-natural residues, lysine acylation, C-terminal amide; synthetic construct; SITE 2: note = 2-Aminoisobutyric Acid; SITE 12: note = L-ornithine; SITE 13: note = alpha-methyl-leucine; SITE 17: note = Lysine is chemically modified through conjugation of the epsilon-amino group of the Lysine side chain with (2-[2-(2-Amino-ethoxy)-ethoxy]-acetyl)-(gamma-Glu)) [Example 161]
RESULT: 0.72
